So I've got a bunch of molecules here, and I need their CC50 values.
test system: Huh-luc/neo-ET cells; assay: Cell cytotoxic test (MTT) on Huh-luc/neo-ET cells; format: cell-based; details: concentration for 50% cell kill, two-day culture
One number for each entry, in µM.

C[C@H]1O[C@@H](O[C@H]2CC[C@@]3(C)[C@@H](CC[C@]4(C)[C@@H]3C=C[C@]35OC[C@@]6(CCC(C)(C)C[C@H]63)[C@H](O)C[C@]54C)[C@]2(C)CO)[C@H](O)[C@@H](O[C@@H]2O[C@H](CO)[C@@H](O)[C@H](O)[C@H]2O)[C@H]1O [A05, Saikosaponin D] :: 23.2

Could you now look at the following molecule, please?
[in] State its CC50: C[C@H]1O[C@@H](O[C@H]2CC[C@@]3(C)[C@@H](CC[C@]4(C)[C@@H]3C=C[C@]35OC[C@@]6(CCC(C)(C)C[C@H]63)[C@@H](O)C[C@]54C)[C@]2(C)CO)[C@H](O)[C@@H](O[C@@H]2O[C@H](CO)[C@@H](O)[C@H](O)[C@H]2O)[C@H]1O [A03, Saikosaponin A]
[out] 23.1
